target: recombinant human SYK360-635 (Homo sapiens); construct: made in house; assay: Determination of IC50 of Spleen Tyrosine Kinase (SYK) inhibition, 33P ATP filtration assay; format: biochemical; details: SYK aa 360-635 0.5 nM; ATP 20 μM, peptide 5 μM, 0.1% BSA; read-out: SYK_ENZYME_FILTRATION/v1, BSA
Recorded Metric: IC50 (nM)
Response body: numeric value in nM, unit text excluded.

# example entries with known answers
| Compound | Assay Target | Recorded Metric | Observed Value |
| --- | --- | --- | --- |
| Cn1nc(-c2cnc3[nH]cc(C(=O)NC4CCS(=O)(=O)C4)c3n2)c2ccc(Cl)cc21 (stereo not shown) | recombinant human SYK360-635 (Homo sapiens) | IC50 | 198 |
| CC(NC(=O)c1c[nH]c2ncc(-c3nn(C)c4cc(F)ccc34)nc12)[C@H]1C[C@@H](O)C1 (stereo partly shown) | recombinant human SYK360-635 (Homo sapiens) | IC50 | 9.95 |
| Cn1nc(-c2cnc3[nH]cc(C(=O)NC(C)(C)C)c3n2)c2cc(C3CC3)ccc21 | recombinant human SYK360-635 (Homo sapiens) | IC50 | 4.79 |

Sure, the documented IC50 for Cn1nc(-c2cnc3[nH]cc(C(=O)NC4CCOCC4)c3n2)c2ccc(Cl)cc21 is 33.3

Sure, the documented IC50 for CNC(=O)Cn1nc(-c2cnc3[nH]cc(C(=O)NC(C)(C)C)c3n2)c2cc(OC(F)F)ccc21 is 14.4

Sure, the documented IC50 for Cn1nc(-c2cnc3[nH]cc(C(=O)NC(C)(C)CN)c3n2)c2ccc(F)cc21 is 145

Sure, the documented IC50 for COC[C@@H](NC(=O)c1c[nH]c2ncc(-c3nn(C)c4cc(F)ccc34)nc12)[C@H](C)O is 168
